- Subject of test: T1, Sortilin SORTECDBAP_hB06-10 (human/tetraodon chimera)
- T1 construct: Shuffle construct: chimeric human/tetraodon Sortilin ECD with BAP tag
- T1 chain: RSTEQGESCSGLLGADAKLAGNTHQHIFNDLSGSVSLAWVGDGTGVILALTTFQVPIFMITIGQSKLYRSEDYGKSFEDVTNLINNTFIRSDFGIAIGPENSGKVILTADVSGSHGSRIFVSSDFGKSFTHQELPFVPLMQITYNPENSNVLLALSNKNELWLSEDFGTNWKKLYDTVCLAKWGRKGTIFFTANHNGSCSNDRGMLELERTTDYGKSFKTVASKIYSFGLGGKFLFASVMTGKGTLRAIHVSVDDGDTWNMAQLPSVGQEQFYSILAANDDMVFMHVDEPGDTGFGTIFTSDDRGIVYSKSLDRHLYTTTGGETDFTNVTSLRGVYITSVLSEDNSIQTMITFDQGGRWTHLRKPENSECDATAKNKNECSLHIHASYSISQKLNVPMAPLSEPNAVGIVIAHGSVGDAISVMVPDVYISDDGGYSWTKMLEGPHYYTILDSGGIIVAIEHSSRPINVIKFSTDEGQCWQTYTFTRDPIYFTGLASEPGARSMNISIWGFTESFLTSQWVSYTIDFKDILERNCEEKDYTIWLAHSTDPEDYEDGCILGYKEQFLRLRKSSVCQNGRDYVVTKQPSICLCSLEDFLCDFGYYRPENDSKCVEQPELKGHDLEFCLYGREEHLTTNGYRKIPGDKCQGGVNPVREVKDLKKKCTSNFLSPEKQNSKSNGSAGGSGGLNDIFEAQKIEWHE
- Experiment summary: BLI (Octet384RED)
Assay metric: EC50 (ng/mL)
Answer in ng/mL, number only, no unit symbol.

Below: 5 binders and their reported EC50.
Need EC50 of Antibody 6003-1286 (antibody, human IgG1, V domains shown) VH: EVQLLESGGGLVQPGGSLRLSCAASGFTFSSYAMSWVRQAPGKGLEWVSTISGRGGNTYYADSVKGRFTISRDNSKNTLYLQMNSLRAEDAAVYYCANIYSHYWYFDLWGRGTLVTVSS VL: EIVLTQSPATLSLSPGERATLSCRASQSVNSYLAWYQQKPGQAPRLLIYDASNRATGIPARFSGSGSGTDFTLTISSLEPEDFAVYYCQQRSNWPLTFGGGTKVEIK , thanks.
0.87

I'd like to know its EC50. The binder in question is Antibody 6003-056 (antibody, human IgG1, V domains shown) VH: EVQVLESGGGLVQPGGSLRLSCVASGFTFSSYAMHWVRQAPGKGLEWVSAISGRGGSTYYADSVKGRFTISRDNSKNTLYLQMNSLRAEDTAVYYCAIIPSLYWYFDLWGRGTLVTVSS VL: EIVLTQSPATLSLSPGERATLSCRASQSVSSFLAWYQQKPGQAPRLLIYDASNRATGIPARFSGSGSGTDFTLTISSLEPEDFAVYYCQQRSNWPLTFGGGTKVEIK
0.97

# lookup: EC50 of IgG1-6003-408 (antibody, V domains shown, also called Antibody 6003-408) VH: EVQLVESGGGLVKPGGSLRLSCAASGFTFSSYSMNWVRQAPGKGLEWVSSISSSSSYIYYADSVKGRFTISRDNAKNSLYLQMNSLRAEDTAVYYCARRRIAAAGTGYGAFDIWGQGTMVTVSS VL: ARQLTQSPSSLSASVGDRVTITCRASQGITSALAWYQQKPGKVPKLLIYDASSLESGVPSRFSGSGSGTDFTLTISSLQPEDFATYYCQQFNGYPMFSFGQGTKLEII
1.68

Recorded EC50 for Antibody 6003-028 (antibody, human IgG1, V domains shown) VH: EVQLLESGGGLVQPGGSLRLSCAASGFTFSSYAMSWVRQAPGKGLEWVSTISGRGGSTYYADSVKGRFTISRDNSKNTLYLQMNSLRAEDTAVYYCANLYSNYWYFDLWGRGTLVTVSS VL: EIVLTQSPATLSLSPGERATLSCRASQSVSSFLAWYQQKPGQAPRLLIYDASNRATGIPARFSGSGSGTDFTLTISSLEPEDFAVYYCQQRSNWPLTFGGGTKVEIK , please?
1.56

Could you share which EC50 value was measured for Antibody 6003-030 (antibody, human IgG1, V domains shown, Human antibody (HuMab); also called antibody 30; mAb30) VH: EVQVLESGGGLVQPGGSLRLSCAASGFTFSSYAMSWVRQAPGKGLEWVSTISGRGGNTYYADSVKGRFTISRDNSKNTLYLQMDSLRAEDTAVYYCAIIPSLYWYFDLWGRGTLVTVSS VL: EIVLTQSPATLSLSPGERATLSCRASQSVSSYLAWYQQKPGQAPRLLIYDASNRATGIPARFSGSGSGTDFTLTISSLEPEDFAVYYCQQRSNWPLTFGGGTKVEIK ?
0.74

Now turn to the next binder.
Please give the measured EC50 for this binder: Antibody 6003-083 (antibody, human IgG1, V domains shown) VH: EVQLLESGGGLVQPGGSLRLSCAASGFTFSSYAMSWVRQAPGKGLEWVSTISGRGGSTYYADSVKGRFTISRDNSKNTLYLQMNSLRAEDTAVYYCAIVATMYWYFDLWGRGTLVTVSS VL: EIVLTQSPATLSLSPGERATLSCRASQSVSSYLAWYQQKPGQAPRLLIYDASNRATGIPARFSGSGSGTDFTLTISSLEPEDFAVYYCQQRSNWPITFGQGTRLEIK
0.76
